- system.tested: Peroxisome proliferator-activated receptor gamma (Homo sapiens, UniProt P37231)
- Sequence (P37231 whole entry): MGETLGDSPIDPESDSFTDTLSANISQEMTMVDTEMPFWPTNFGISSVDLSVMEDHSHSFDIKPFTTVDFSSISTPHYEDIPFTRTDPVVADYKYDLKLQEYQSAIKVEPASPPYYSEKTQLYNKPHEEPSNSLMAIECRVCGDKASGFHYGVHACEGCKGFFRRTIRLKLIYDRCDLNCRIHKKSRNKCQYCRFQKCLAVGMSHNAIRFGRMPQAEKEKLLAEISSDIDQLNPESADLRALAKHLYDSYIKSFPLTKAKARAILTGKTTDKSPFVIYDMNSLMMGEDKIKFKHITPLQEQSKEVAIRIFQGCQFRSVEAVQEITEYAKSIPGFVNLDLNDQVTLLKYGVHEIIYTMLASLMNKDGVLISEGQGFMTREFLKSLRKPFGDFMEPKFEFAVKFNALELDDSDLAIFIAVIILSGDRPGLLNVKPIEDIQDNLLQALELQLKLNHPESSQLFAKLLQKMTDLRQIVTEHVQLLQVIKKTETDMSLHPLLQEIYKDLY
- assay.explanation: Antagonist activity at human PPARgamma receptor expressed in Saccharomyces cerevisiae AH109 co-transfected with mouse CBP assessed as inhibition of rosiglitazone-induced LBD-CBP interaction by alpha-galactosidase based yeast two hybrid assay
Residues, ends and D or L forms follow the SMILES beside them.
property.name: IC50 (µM)
Give just the number in µM; leave the unit off.

Asked: Which IC50 is reported for this molecule? NC(=O)CC[C@H](NC(=O)[C@@H](N)Cc1c[nH]c2ccccc12)C(=O)O (H-Trp-Gln-OH)
Given back: 18.7

Asked: Which IC50 is reported for this molecule? CC(C)C[C@H](NC(=O)[C@@H](N)Cc1c[nH]c2ccccc12)C(=O)O (H-Trp-Leu-OH)
Given back: 25.8

Asked: Which IC50 is reported for this molecule? C=CCn1cc([N+](=O)[O-])s/c1=N\C(=O)C(C)(C)C
Given back: 0.82

Asked: Which IC50 is reported for this molecule? CC(=O)NCCOC(=O)C(Oc1cccc(C(F)(F)F)c1)c1ccc(Cl)cc1 (centres undefined) [HALOFENATE]
Given back: 40

====

- system.tested: Peroxisome proliferator-activated receptor gamma (Homo sapiens)
- assay.explanation: Antagonist activity at human PPARgamma receptor expressed in Saccharomyces cerevisiae AH109 co-transfected with mouse CBP assessed as inhibition of rosiglitazone-induced LBD-CBP interaction by alpha-galactosidase based yeast two hybrid assay
Non-standard residues stand in square brackets, D forms with d. Residues, ends and D or L forms follow the SMILES beside them. Aad = N[C@@H](CCCC(=O)O)C(=O)O
For each record, write down the corresponding IC50.
Give just the number in µM; leave the unit off.

Asked: Which IC50 is reported for this compound? N=C(N)NCCC[C@H](NC(=O)[C@@H](N)Cc1c[nH]c2ccccc12)C(=O)O (H-Trp-Arg-OH)
Given back: 15.4

Asked: Which IC50 is reported for this compound? O=C(Nc1ccccc1)c1cc([N+](=O)[O-])ccc1Cl
Given back: 3.3

Asked: Which IC50 is reported for this compound? NC(=O)C[C@H](NC(=O)[C@@H](N)Cc1c[nH]c2ccccc12)C(=O)O (H-Trp-Asn-OH)
Given back: 18.4

Asked: Which IC50 is reported for this compound? N[C@@H](Cc1c[nH]c2ccccc12)C(=O)N[C@@H](CCCC(=O)O)C(=O)O (H-Trp-[Aad]-OH)
Given back: 15.1

Asked: Which IC50 is reported for this compound? N[C@@H](Cc1c[nH]c2ccccc12)C(=O)N[C@@H](CC(=O)O)C(=O)O
Given back: 5.2

Asked: Which IC50 is reported for this compound? CC(C)(c1ccc(OCC2CO2)cc1)c1ccc(OCC2CO2)cc1 (centres undefined)
Given back: 100

Asked: Which IC50 is reported for this compound? COP(=O)(OC)OC(c1ccc(Cl)cc1)P(=O)(OC)OC (centres undefined) [MIFOBATE]
Given back: 140

Asked: Which IC50 is reported for this compound? O=C(O)C(Oc1cccc(C(F)(F)F)c1)c1ccc(Cl)cc1 (centres undefined)
Given back: 0.22

Asked: Which IC50 is reported for this compound? N[C@@H](Cc1c[nH]c2ccccc12)C(=O)N[C@@H](CCC(=O)O)C(=O)O
Given back: 8.67

// provenance: ChEMBL document CHEMBL1154460
